Below is a list of entries, each paired with its recorded TGI value.
System: RXF 393 renal
Test: NCI tumour cell line growth inhibition, 48 h
State just the number; it will be interpreted in µM.

Examples from the recorded data:
| Compound | TGI [µM] |
| --- | --- |
| COC(=O)C1=C(C(=O)OC)SC2(S1)C(C(=O)OC)=C(C(=O)OC)Sc1c2ssc1=Nc1ccc(Cl)cc1 | 0.894 |
| C[C@@H](NC(=O)c1ccc(CNC(=O)/C=C/c2cccc(Oc3ccccc3)c2)cc1)c1ccccc1 | 12.2 |
| O=C(C/C(=N/O)c1cc(-c2ccccc2)no1)c1ccccc1 | 41.2 |

Problem: Provide the reported TGI (system: RXF 393 renal) for CCOC(=O)C(C(=S)SC)c1nn2c(=O)cc(C)nc2s1 (stereo not drawn)
Solution: 39.8

Problem: Provide the reported TGI (system: RXF 393 renal) for Cn1cc(C2=C(c3cn(C)c4ccccc34)C(=O)NC2=O)c2ccccc21
Solution: 14.5

Problem: Provide the reported TGI (system: RXF 393 renal) for CCCCCCCCC(=O)OCC(CS[As](C)C)OC(=O)CCCCCCCC (stereo not drawn)
Solution: 10.7

Problem: Provide the reported TGI (system: RXF 393 renal) for O=C1C=C(OCCCCl)C(=O)c2c(O)ccc(O)c21
Solution: 3.09

Problem: Provide the reported TGI (system: RXF 393 renal) for COc1cc(C(=O)Nc2cc(OC)c3ccn(C)c3c2)cc2c1C[C@]1(C)CC[C@@H](O)C(C)(C)[C@H]1O2
Solution: 0.485

Problem: Provide the reported TGI (system: RXF 393 renal) for COc1ccc2[nH]c3c(C)c4ccnc(NCCCN(C)CCCNc5ccc6ncn7c8ccccc8c(=O)c5c67)c4c(C)c3c2c1
Solution: 0.623

Problem: Provide the reported TGI (system: RXF 393 renal) for O=Cc1ccc(CCl)cc1
Solution: 31

Problem: Provide the reported TGI (system: RXF 393 renal) for CCOC(=O)c1c2c(c(O)c3ccccc3c(O)n(Cc3ccccc3)c1C)C(=O)C=CC2=O
Solution: 75.9

Problem: Provide the reported TGI (system: RXF 393 renal) for Cc1ccc2nc(C=Nc3ccc(Cl)cc3)cc(C)c2c1
Solution: 62.3

Problem: Provide the reported TGI (system: RXF 393 renal) for O=C1c2ccccc2-c2c1c1ccccc1c(=O)n2CCCNCCCCNCCCN1C(=O)c2ccccc2C2C(=O)c3ccccc3C21 (stereo not drawn)
Solution: 0.823

====

Tested on: SF-268 CNS
Test: NCI tumour cell line growth inhibition, 48 h
Below is a list of entries, each paired with its recorded TGI value.

Examples from the recorded data:
| Compound | Experimental readout | Data value |
| --- | --- | --- |
| O=S(=O)(/N=c1/scc(-c2ccccc2)n1-c1ccccc1)c1ccc(N2N=C3c4ccccc4CC3C2c2cccs2)cc1 (stereo not given) | TGI | > 100 µM |
| COc1ccc(/C=C/C(=O)c2ccc(OC)c(OC)c2)cc1O | TGI | 29.1 µM |

Problem: Provide the reported TGI (system: SF-268 CNS) for COc1ccc(C2C3CCc4ccccc4C3=NN2S(=O)(=O)c2ccc(/C=C/C(=O)O)cc2)cc1 (stereo not given)
Solution: 71.2 µM

Problem: Provide the reported TGI (system: SF-268 CNS) for CC(=O)Oc1ccc(/C(=C(\C)c2ccc(Cl)cc2)c2ccc(OCCN3CCCCC3)cc2)cc1
Solution: 3.86 µM

Problem: Provide the reported TGI (system: SF-268 CNS) for O=C(CSc1nc2ccc(I)cc2c(=O)n1Cc1ccccc1)NNC(=O)c1ccccc1
Solution: 20.8 µM

====

System: OVCAR-5 ovarian
Experiment: NCI tumour cell line growth inhibition, 48 h
Experimental readout: TGI

Examples from the recorded data:
| Molecule | Study target | TGI |
| --- | --- | --- |
| CC1=CC(=O)CC(C)(C)C1/C=C/C(C)=C/C=C/C(C)=C/C=C/C=C(C)/C=C/C=C(C)/C=C/C1=C(C)CC(O)CC1(C)C (stereo not given) | OVCAR-5 ovarian | > 100 µM |
| c1ccc2c(c1)N=C(c1cccc3ccccc13)CC(c1ccc3c(c1)OCO3)S2 (stereo not given) | OVCAR-5 ovarian | > 100 µM |
| COc1ccc(/C=C2\C=C(c3ccccc3)N(CCc3ccccc3)C2=O)cc1OC | OVCAR-5 ovarian | 73.1 µM |
| c1ccc2cc(C[n+]3ccn(CCCCCCCCCCn4cc[n+](Cc5ccc6ccccc6c5)c4)c3)ccc2c1 | OVCAR-5 ovarian | 9.48 µM |
| O=C(O)C12CCCCC1CCCC2 (stereo not given) | OVCAR-5 ovarian | > 100 µM |
| CC(=O)NC(Cc1ccsc1)C(=O)O (stereo not given) | OVCAR-5 ovarian | > 100 µM |

Problem: Look up and report measured TGI for this entry: FC(F)(Sc1ncc[nH]1)c1nc2ccccc2o1
Solution: > 100 µM

Problem: Look up and report measured TGI for this entry: CC(=O)OC1CC2C3CCC4C[C@@H](NC(=O)C=C(C)C)CC[C@]4(C)C3CC[C@]2(C)[C@H]1C(C)N(C)C (stereo not given in full)
Solution: 10.4 µM

Problem: Look up and report measured TGI for this entry: C/C(=N\Nc1nc2cccnc2s1)c1ccccn1
Solution: > 64.4 µM

Problem: Look up and report measured TGI for this entry: COc1cc(C(=O)N/N=C/c2ccc(N(C)C)cc2)cc(OC)c1OC
Solution: > 100 µM

Problem: Look up and report measured TGI for this entry: CC1(C)[C@@H](OC(=O)CCC(=O)O)CC[C@]2(C)[C@H]3C(=O)C=C4[C@@H]5C[C@@](C)(C(=O)O)CC[C@]5(C)CC[C@@]4(C)[C@]3(C)CC[C@@H]12
Solution: 125 µM

Problem: Look up and report measured TGI for this entry: Cc1cc(S(=O)(=O)/N=C(/[N-]S(=O)(=O)c2ccc(Cl)cc2)[n+]2ccc(N(C)C)cc2)c(SCC(=O)O)cc1Cl
Solution: > 100 µM

====

Test system: RPMI-8226 leukemia
Assay: NCI tumour cell line growth inhibition, 48 h
Below is a list of entries, each paired with its recorded TGI value.

| Molecule | Study target | TGI |
| --- | --- | --- |
| COc1cc(C2C(Cl)C(=O)N2NC(=O)c2ccc(N)cc2)cc(Br)c1O (configuration not stated) | RPMI-8226 leukemia | 51.5 µM |
| CC(C)Cc1cc2c(cc1O)CCC1C2CC[C@@]2(C)C1CC[C@@H]2O (some centres not stated) | RPMI-8226 leukemia | 20.4 µM |
| CCOC(=O)c1c2c(c(O)c3ccccc3c(O)n(Cc3ccccc3)c1C)C(=O)C=CC2=O | RPMI-8226 leukemia | > 100 µM |
| O=c1oc2ccc(Br)cc2c(=O)n1-c1ccc(I)cc1F | RPMI-8226 leukemia | 1.16 µM |

Kindly review the next molecule as well.
Problem: Look up and report measured TGI for this entry: Cc1cc(S(=O)(=O)/N=C(/[N-]S(=O)(=O)c2ccc(Cl)cc2)[n+]2ccc(N(C)C)cc2)c(SCC(=O)O)cc1Cl
Solution: > 100 µM

====

Below is a list of entries, each paired with its recorded TGI value.
Tested on: LOX IMVI melanoma
Test: NCI tumour cell line growth inhibition, 48 h
State just the number; it will be interpreted in µM.

Examples from the recorded data:
| Molecule | TGI / µM |
| --- | --- |
| COc1ccc(C2C3CCc4ccccc4C3=NN2S(=O)(=O)c2ccc(/C=C/C(=O)O)cc2)cc1 (stereo not drawn) | 24.5 |
| COc1cc(C(=O)Nc2cc(OC)c3ccn(C)c3c2)cc2c1C[C@]1(C)CC[C@@H](O)C(C)(C)[C@H]1O2 | 10.1 |
| COc1cc2c(cc1Nc1nc(Nc3cccc(F)c3C(N)=O)c3cc[nH]c3n1)N(C(=O)CN1CCN(C(C)C)CC1)CC2 | 7.03 |

Problem: Look up and report measured TGI for this entry: C=C[C@]1(C)CCC2=C(CCC3C2(C)CCC[C@@]3(C)COC(C)=O)C1 (stereo partly drawn)
Solution: 33.8

====

Tested on: SNB-19 CNS
Assay: NCI tumour cell line growth inhibition, 48 h
Classification field: enter condition met for TGI values not below 9 µM, condition not met for values below it.

Below, 5 compounds whose answers are already recorded.
| Compound | Class label |
| --- | --- |
| Fc1ccc(-c2sc(-c3cccs3)cc2Cc2cccs2)cc1 | condition met |
| Clc1ccc(-c2cc(-c3ccccc3)nc(NCCNc3ccnc4cc(Cl)ccc34)n2)cc1 | condition not met |
| NN1C(=O)C(CCO)S/C1=N/N=C1/SC(CCO)C(=O)N1N (centres undefined) | condition met |
| O=C1C=C(OCCCCl)C(=O)c2c(O)ccc(O)c21 | condition not met |
| COc1ccc2[nH]c3c(C)c4ccnc(NCCCN(C)CCCNc5ccc6ncn7c8ccccc8c(=O)c5c67)c4c(C)c3c2c1 | condition not met |

Problem: Quick check, TGI >= 9 µM? CC(=O)NC1C(OCc2ccccc2)OC(COC(=O)CCCCCCCCCCNc2ccc([N+](=O)[O-])c3[nH]c4ccccc4c(=O)c23)C(O)C1OC(C)C(=O)NC(C)C(=O)NC(CCC(N)=O)C(=O)OCc1ccccc1 (centres undefined)
Solution: condition met

Problem: Quick check, TGI >= 9 µM? COc1cc(-c2cc(-c3cc(OC)c(OC)c(OC)c3)nc3nc(N)[nH]c(=O)c23)ccc1Oc1ccnc2cc(Cl)ccc12
Solution: condition met

Problem: Quick check, TGI >= 9 µM? CC1(C)[C@@H](OC(=O)CCC(=O)O)CC[C@]2(C)[C@H]3C(=O)C=C4[C@@H]5C[C@@](C)(C(=O)O)CC[C@]5(C)CC[C@@]4(C)[C@]3(C)CC[C@@H]12
Solution: condition met

Problem: Quick check, TGI >= 9 µM? CC(=O)C1=C(C)N(c2ccc(C)cc2)C2(O)C3=C(C(=O)c4ccccc4C3=O)C(O)=CC12Cl (centres undefined)
Solution: condition met

Problem: Quick check, TGI >= 9 µM? COC(=O)C(C/C=C(\C)c1ccc(Cl)cc1)C(C)=O (centres undefined)
Solution: condition met

Problem: Quick check, TGI >= 9 µM? OCc1ccc(N2CCc3ccccc3C2)cc1Cl
Solution: condition met
